Exercise: for every item that follows, state its recorded CSP.
- TEST_TARGET: GABARAPL2 (Homo sapiens)
- Sequence (P60520 whole entry): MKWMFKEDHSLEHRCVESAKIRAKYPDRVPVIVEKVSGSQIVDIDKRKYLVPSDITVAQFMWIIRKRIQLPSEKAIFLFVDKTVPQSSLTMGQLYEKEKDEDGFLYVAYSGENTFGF
- TEST_CONTEXT: residue Q59; GABARAPL2:ligand molar ratio 1:2
Give the quantity in ppm, number only.

Task: Recall the recorded CSP for O=c1cc(-c2ccccc2)c2c(O)cc(O)cc2o1 [compound 2] with GABARAPL2 (Homo sapiens) and state it.
Output: 0.002

Task: Recall the recorded CSP for O=C1Nc2ccc(I)cc2C1=Cc1cc(Br)c(O)c(Br)c1 [compound 4] with GABARAPL2 (Homo sapiens) and state it.
Output: 0.016

Task: Recall the recorded CSP for Cc1ccc(C(=O)N(CCCN)[C@@H](c2nc3cc(Cl)ccc3c(=O)n2Cc2ccccc2)C(C)C)cc1 [compound 3] with GABARAPL2 (Homo sapiens) and state it.
Output: 0.000424

Task: Recall the recorded CSP for O=C1Nc2ccc(Br)cc2C1=Cc1cc(O)c(O)c(Br)c1 [compound 1] with GABARAPL2 (Homo sapiens) and state it.
Output: 0.00467

---

- ASSAY_NAME: Cell viability measurements
- Format: cell-based
- TEST_CONTEXT: log concentration [M] -6.00436; two replicate columns
PARAMETER_MEASURED: viability at […] (%)
Give the quantity in %, number only.

Task: // returns reported viability at […] for input Cc1ccc(C(=O)N(CCCN)[C@@H](c2nc3cc(Cl)ccc3c(=O)n2Cc2ccccc2)C(C)C)cc1 [compound 3]
Output: 93.4

Task: // returns reported viability at […] for input O=C1Nc2ccc(I)cc2C1=Cc1cc(Br)c(O)c(Br)c1 [compound 4]
Output: 95.7

---

- TEST_TARGET: GABARAPL2 (Homo sapiens)
- TEST_CONTEXT: residue A58; GABARAPL2:ligand molar ratio 1:2
Exercise: for every item that follows, state its recorded CSP.
Give the quantity in ppm, number only.

Task: // returns reported CSP for input O=C1Nc2ccc(I)cc2C1=Cc1cc(Br)c(O)c(Br)c1
Output: 0.016

Task: // returns reported CSP for input O=c1cc(-c2ccccc2)c2c(O)cc(O)cc2o1
Output: 0.00237

Task: // returns reported CSP for input O=C1Nc2ccc(Br)cc2C1=Cc1cc(O)c(O)c(Br)c1
Output: 0.006

Task: // returns reported CSP for input Cc1ccc(C(=O)N(CCCN)[C@@H](c2nc3cc(Cl)ccc3c(=O)n2Cc2ccccc2)C(C)C)cc1
Output: 0.00148

---

- TEST_TARGET: GABARAPL2 (Homo sapiens)
- TEST_CONTEXT: residue K35; GABARAPL2:ligand molar ratio 1:2
PARAMETER_MEASURED: CSP (ppm)
Give the quantity in ppm, number only.

Task: // returns reported CSP for input O=C1Nc2ccc(Br)cc2C1=Cc1cc(O)c(O)c(Br)c1 [compound 1]
Output: 0.010

Task: // returns reported CSP for input O=c1cc(-c2ccccc2)c2c(O)cc(O)cc2o1 [compound 2]
Output: 0.007

Task: // returns reported CSP for input Cc1ccc(C(=O)N(CCCN)[C@@H](c2nc3cc(Cl)ccc3c(=O)n2Cc2ccccc2)C(C)C)cc1 [compound 3]
Output: 0.004

Task: // returns reported CSP for input O=C1Nc2ccc(I)cc2C1=Cc1cc(Br)c(O)c(Br)c1 [compound 4]
Output: 0.014

---

- TEST_TARGET: UniProt P60520
- TEST_CONTEXT: residue K46; estimated; GABARAPL2:ligand molar ratio 1:2
PARAMETER_MEASURED: CSP (ppm)
Give the quantity in ppm, number only.

Task: // returns reported CSP for input O=c1cc(-c2ccccc2)c2c(O)cc(O)cc2o1 [compound 2]
Output: 0.005

Task: // returns reported CSP for input O=C1Nc2ccc(Br)cc2C1=Cc1cc(O)c(O)c(Br)c1 [compound 1]
Output: 0.005

Task: // returns reported CSP for input Cc1ccc(C(=O)N(CCCN)[C@@H](c2nc3cc(Cl)ccc3c(=O)n2Cc2ccccc2)C(C)C)cc1 [compound 3]
Output: 0.010

Task: // returns reported CSP for input O=C1Nc2ccc(I)cc2C1=Cc1cc(Br)c(O)c(Br)c1 [compound 4]
Output: 0.050
